test-system: human HSL (Homo sapiens)
Construct: generate a full length human HSL ORF with a 3′-His6 tag
Sequence (Q05469 whole entry): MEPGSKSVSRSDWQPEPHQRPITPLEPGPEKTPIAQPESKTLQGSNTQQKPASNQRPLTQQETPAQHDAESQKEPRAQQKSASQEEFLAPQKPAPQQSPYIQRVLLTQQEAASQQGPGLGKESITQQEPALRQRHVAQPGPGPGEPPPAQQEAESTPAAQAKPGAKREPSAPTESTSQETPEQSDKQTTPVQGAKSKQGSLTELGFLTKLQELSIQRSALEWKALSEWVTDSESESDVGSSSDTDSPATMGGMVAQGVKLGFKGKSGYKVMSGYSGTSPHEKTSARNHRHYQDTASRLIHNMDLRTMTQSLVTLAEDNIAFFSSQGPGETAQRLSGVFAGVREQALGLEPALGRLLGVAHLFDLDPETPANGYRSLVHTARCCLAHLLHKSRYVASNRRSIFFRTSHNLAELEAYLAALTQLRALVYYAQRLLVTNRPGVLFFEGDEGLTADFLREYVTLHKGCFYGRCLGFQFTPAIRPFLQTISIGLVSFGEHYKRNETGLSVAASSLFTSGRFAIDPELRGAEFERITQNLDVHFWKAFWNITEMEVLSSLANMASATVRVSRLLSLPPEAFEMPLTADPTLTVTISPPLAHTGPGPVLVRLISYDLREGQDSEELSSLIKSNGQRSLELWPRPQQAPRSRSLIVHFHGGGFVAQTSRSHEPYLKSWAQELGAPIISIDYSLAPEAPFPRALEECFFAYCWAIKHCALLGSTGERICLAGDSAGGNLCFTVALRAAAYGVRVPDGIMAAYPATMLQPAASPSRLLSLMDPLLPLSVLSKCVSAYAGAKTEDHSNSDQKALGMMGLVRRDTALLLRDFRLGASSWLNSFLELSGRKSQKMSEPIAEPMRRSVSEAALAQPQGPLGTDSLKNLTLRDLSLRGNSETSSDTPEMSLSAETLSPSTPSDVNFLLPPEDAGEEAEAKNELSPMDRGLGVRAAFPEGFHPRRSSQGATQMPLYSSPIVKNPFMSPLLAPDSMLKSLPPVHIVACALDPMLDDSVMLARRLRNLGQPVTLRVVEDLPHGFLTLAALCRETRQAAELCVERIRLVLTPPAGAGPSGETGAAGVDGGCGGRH
measurement-notes: Human Hormone-Sensitive Lipase (HSL) enzyme inhibition assay (colorimetric, DMPT substrate)
setup-conditions: human full length HSL-His6, 2,3-dimercapto-1-propanol tributyrate substrate, 37° C. 20 minutes, absorbance at 405 nm; read-out: HSL hum IC50
pIC50: −log10 of the molar value.
parameter: pIC50

Some solved entries appear below for comparison.
* C[C@]1(O)CC[C@@]2(CCN(c3ccc(OCC(F)(F)F)cc3)C2=O)CC1 | 5.42
* COc1ccc(N2CC[C@]3(CC[C@H](O)CC3)C2=O)cc1 | 4.62

a: CC(C)[C@]1(O)CC[C@]2(CCN(c3ccc(O[C@@H](C)C(F)(F)F)nc3)C2=O)CC1
b: CC(C)(C)c1ccc(N2CC[C@]3(CC[C@@](O)(CS(=O)(=O)C(C)(C)C)CC3)C2=O)cc1
c: CCOC[C@]1(O)CC[C@]2(CCN(c3ccc(OCC(F)(F)F)cc3)C2=O)CC1
Query block: I would appreciate it if you could sort these 3 compounds by pIC50, starting from the smallest number. The labels, placed in the requested order, form the answer.
Result block: c, a, b
(c: 7.40, a: 7.70, b: 8.10)
